Quick reference for pIC50 among some molecules
Measurement target: human STAT6/pIL-4Rα (Homo sapiens, UniProt P42226)
Construct: histidine tag
Test description: Binding inhibitory activity between human STAT6/pIL-4Rα by fluorescence polarization method
Condition parameters: rhSTAT6 (123-658) / FAM-pIL-4Rα peptide
pIC50 is defined as minus the log10 of a concentration measured in mol/L.

Some solved cases for reference:
1. Cc1nn(C)c(=O)n1-c1ccc(-c2cc3ccnc(C(=O)Nc4ccc(F)c(C(N)=O)c4)c3n2C)cc1: 6.34
2. CCn1c(-c2ccc(C(=O)N(C)C)cc2)cc2ccnc(C(=O)Nc3ccc(F)c(C(=O)NCC#N)c3)c21: 6.48
3. CCn1c(-c2ccc(-n3cnn(C)c3=O)cc2)c(Cl)c2cc(C(F)(F)F)cc(C(=O)Nc3ccc(F)c(C(N)=O)c3)c21: 6.52
4. Cc1nn(C)c(=O)n1-c1ccc(-c2cc3ccnc(C(=O)Nc4cccc(C(N)=O)c4)c3n2CC2CCC2)cc1: 6.30
5. CCn1c(-c2ccc(N3CCCC3=O)cc2)nc2cc(Br)cc(C(=O)Nc3cccc(C(N)=O)c3)c21: 6.13
6. COCCn1c(-c2ccc(-n3c(C)nn(C)c3=O)cc2)cc2cc(C(F)(F)F)cc(C(=O)Nc3ccc(F)c(C(N)=O)c3)c21: 6.62

What does the data say about its pIC50? Entry: "Cc1nn(C)c(=O)n1-c1ccc(-c2cc3cc(C(F)(F)F)cc(C(=O)Nc4cccc(C(N)=O)c4F)c3n2CC2(C#N)CC2)cc1"
6.59

###

Measurement target: human STAT6/pIL-4Rα (Homo sapiens, UniProt P42226)
Construct: histidine tag
Test description: Binding inhibitory activity between human STAT6/pIL-4Rα by fluorescence polarization method
Condition parameters: rhSTAT6 (123-658) / FAM-pIL-4Rα peptide
pIC50: −log10 of the molar value.
Label 1 for high-side pIC50 (at or above 6) and 0 for low-side pIC50 (below it).

1) COCCn1c(-c2ccc(N(C)C(C)=O)cc2)nc2cc(CC#N)cc(C(=O)Nc3cccc(C(N)=O)c3)c21 [Ex. 214]: 0
2) CCn1c(-c2ccc(-n3c(C)nn(C)c3=O)cn2)cc2cc(C(F)(F)F)cc(C(=O)Nc3ccc(F)c(C(N)=O)c3)c21 [Ex. 61]: 1
3) CNC(=O)c1cccc(NC(=O)c2cc(C(F)(F)F)cc3cc(-c4ccc(-n5c(C)nn(C)c5=O)cc4)n(CCOC)c23)c1 [Ex. 44]: 1
4) CCn1c(-c2ccc(-n3c(C)nn(C)c3=O)cc2)cc2ccnc(C(=O)Nc3cccc(C(=O)Nc4cncn(C)c4=O)c3)c21 [Ex. 167]: 1

Now look at this entry.
Is it the case that CCn1c(-c2ccc(-n3c(C)nn(C)c3=O)nn2)cc2cc(C(F)(F)F)cc(C(=O)Nc3ccc(F)c(C(N)=O)c3)c21 [Ex. 128] has pIC50 reaching or exceeding 6?
1

###

Below is a list of entries, each paired with its recorded log10 IC50 value.
Measurement target: human STAT6/pIL-4Rα (Homo sapiens)
Construct: histidine tag
Sequence (P42226 123-658): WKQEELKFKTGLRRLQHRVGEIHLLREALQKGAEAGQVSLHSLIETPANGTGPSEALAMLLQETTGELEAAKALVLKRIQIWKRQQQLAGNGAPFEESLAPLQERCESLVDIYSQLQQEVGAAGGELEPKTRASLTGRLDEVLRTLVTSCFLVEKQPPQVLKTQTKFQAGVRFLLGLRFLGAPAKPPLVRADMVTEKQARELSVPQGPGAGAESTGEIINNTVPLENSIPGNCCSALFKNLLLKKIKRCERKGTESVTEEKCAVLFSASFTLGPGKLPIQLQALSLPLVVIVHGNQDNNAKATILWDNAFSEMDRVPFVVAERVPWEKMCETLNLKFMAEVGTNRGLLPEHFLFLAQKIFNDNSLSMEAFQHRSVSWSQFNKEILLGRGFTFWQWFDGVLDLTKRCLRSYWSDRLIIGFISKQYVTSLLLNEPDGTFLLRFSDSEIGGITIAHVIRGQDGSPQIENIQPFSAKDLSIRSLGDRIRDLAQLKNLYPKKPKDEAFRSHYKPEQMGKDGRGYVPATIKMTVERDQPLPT
Test description: Binding inhibitory activity between human STAT6/pIL-4Rα by fluorescence polarization method
Condition parameters: rhSTAT6 (123-658) / FAM-pIL-4Rα peptide
Reminder: these figures are log10 of reported IC50, in nM before transformation.

These recorded examples may help you get a feel for the data.
1. CCn1c(-c2ccc(-n3c(C)nn(C)c3=O)nn2)cc2cc(C(F)(F)F)cc(C(=O)Nc3cccc(C(N)=O)c3F)c21: 2.40
2. COCCn1c(-c2ccc(N(C)C(C)=O)cc2)nc2cc(-c3ccccc3)cc(C(=O)Nc3cccc(C(N)=O)c3)c21: 3.82
3. COCCn1c(-c2ccc(-n3c(C)nn(C)c3=O)cc2)cc2cc(C(F)(F)F)cc(C(=O)Nc3ccncc3)c21: 3.53
4. COCCn1c(-c2ccc(N(C)C(C)=O)cc2)nc2cc(CC(C)C)cc(C(=O)Nc3cccc(C(N)=O)c3)c21: 3.70
5. COCCn1c(-c2ccc(N3C(=O)C(C)CC3C)cc2)cc2cc(C(F)(F)F)nc(C(=O)Nc3ccc(F)c(C(N)=O)c3)c21 (stereo not shown): 2.36
6. CC1CC(C)N(c2ccc(-c3cc4ccnc(C(=O)Nc5ccc(F)c(C(N)=O)c5)c4n3CC3(C#N)CC3)cc2)C1=O (single isomer, unassigned) [Ex. 221]: 2.56

GET /values?readout=log10 IC50&item= "CCn1c(-c2ccc(-n3ncn(C)c3=O)cc2)cc2cc(C(F)(F)F)cc(C(=O)Nc3cccc(C(N)=O)c3F)c21"
3.00

###

Measurement target: human STAT6/pIL-4Rα (Homo sapiens, UniProt P42226)
Construct: histidine tag
Sequence (P42226 123-658): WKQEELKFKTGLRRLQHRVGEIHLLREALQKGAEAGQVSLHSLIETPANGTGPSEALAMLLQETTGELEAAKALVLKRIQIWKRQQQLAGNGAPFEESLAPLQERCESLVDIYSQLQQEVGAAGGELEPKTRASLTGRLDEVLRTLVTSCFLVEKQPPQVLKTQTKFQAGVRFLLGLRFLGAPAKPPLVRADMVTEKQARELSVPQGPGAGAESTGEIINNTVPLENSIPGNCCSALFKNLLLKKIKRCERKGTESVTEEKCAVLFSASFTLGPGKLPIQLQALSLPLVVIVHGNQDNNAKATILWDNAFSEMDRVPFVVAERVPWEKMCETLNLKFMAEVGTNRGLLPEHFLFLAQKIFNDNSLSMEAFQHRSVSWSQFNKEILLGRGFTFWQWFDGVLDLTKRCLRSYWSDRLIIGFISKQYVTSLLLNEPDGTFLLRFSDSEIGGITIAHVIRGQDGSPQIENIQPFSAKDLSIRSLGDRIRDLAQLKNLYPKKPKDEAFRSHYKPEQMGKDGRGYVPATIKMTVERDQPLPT
Test description: Binding inhibitory activity between human STAT6/pIL-4Rα by fluorescence polarization method
Condition parameters: rhSTAT6 (123-658) / FAM-pIL-4Rα peptide
Hi! Could you tag entries with IC50 below 400 nM as met, and those at or above as not met? Much appreciated.

1. CCn1c(-c2ccc(-n3c(C)nn(C)c3=O)cc2)cc2ccnc(C(=O)Nc3cccc(C(=O)Nc4ccn(C)n4)c3)c21: met
2. CCn1c(-c2ccc(-n3c(C)nn(C)c3=O)cc2)cc2ccnc(C(=O)Nc3cccc(C(=O)Nc4ccc(C)n(C)c4=O)c3)c21: met
3. CCn1c(-c2ccc(N3C(=O)C(C)CC3C)cc2)cc2ccnc(C(=O)Nc3ccc(F)c(C(N)=O)c3)c21 (centres unmarked) [Ex. 130]: met

For "CCn1c(-c2ccc(-n3c(C)nn(C)c3=O)cc2)cc2ccnc(C(=O)Nc3cccc(C(N)=O)c3F)c21" , is the recorded IC50 below the cut-off of 400 nM?
met

Bench note: check whether "CCn1c(-c2ccc(-n3c(C)nn(C)c3=O)cc2)cc2ccnc(C(=O)Nc3ccc(F)c(C(=O)Nc4cc(C)cn(C)c4=O)c3)c21" shows IC50 below 400 nM
not met

I'd appreciate it if you could check whether "Cc1nn(C)c(=O)n1-c1ccc(-c2cc3cc(C(F)(F)F)cc(C(=O)Nc4ccc(F)c(C(N)=O)c4)c3n2CC2CC2)cc1" has IC50 smaller than 400 nM.
not met

Identify whether the molecule "CCn1c(-c2ccc(-n3c(C)nn(C)c3=O)cc2)cc2cc(C(F)(F)F)cc(C(=O)Nc3cc[nH]n3)c21" records IC50 below 400 nM.
not met

###

Measurement target: human STAT6/pIL-4Rα (Homo sapiens, UniProt P42226)
Construct: histidine tag
Test description: Binding inhibitory activity between human STAT6/pIL-4Rα by fluorescence polarization method
Condition parameters: rhSTAT6 (123-658) / FAM-pIL-4Rα peptide
List of IC50 values.
Report the figure in nM without appending any unit label.

1. Cc1nn(C)c(=O)n1-c1ccc(-c2cc3ccnc(C(=O)Nc4cccc(C(N)=O)c4F)c3n2CC2(C#N)CC2)cc1: 500
2. COCCn1c(-c2ccc(-n3c(C)nn(C)c3=O)cc2)cc2cc(C(F)(F)F)cc(C(=O)Nc3cccc(C(=O)O)n3)c21: 270
3. CCn1c(-c2ccc(-n3c(C)nn(C)c3=O)cc2)cc2nc(C(F)(F)F)cc(C(=O)Nc3ccc(F)c(C(N)=O)c3)c21: 480
4. COCCn1c(-c2ccc(-n3c(C)nn(C)c3=O)cc2)cc2cc(C(F)(F)F)cc(C(=O)Nc3cccc(C(=O)O)c3)c21: 300
5. CCn1c(-c2ccc(N3C(=O)C(C)CC3C)cc2)cc2cc(C(F)(F)F)cc(C(=O)Nc3cccc(C(N)=O)c3F)c21 (stereo not shown): 870
6. COCCn1c(-c2ccc(-n3c(C)nn(C)c3=O)cc2)cc2cc(C(F)(F)F)nc(C(=O)Nc3ccc(F)c(C(N)=O)c3)c21: 280

Next item in the queue.
Observed IC50 on human STAT6/pIL-4Rα (Homo sapiens, UniProt P42226) for "Cc1nn(C)c(=O)n1-c1ccc(-c2cc3cc(C(F)(F)F)nc(C(=O)Nc4cccc(C(N)=O)c4)c3n2C)cc1" , please.
280
